- Tested on: CYP isozymes (IC50s averaged over the isozymes)
- assayDetails: CYP Enzymatic Inhibition Assay in human liver microsomes
A collection of molecules and their measured IC50 at 10 min
State just the number; it will be interpreted in µM.

Recorded results for 3 molecules are shown here.
{"smilesEntry": "CNCC[C@@]1(C)CN(Cc2ccc(Nc3ncc(F)c(-c4cc(F)c5nc(C)n(C(C)C)c5c4)n3)nc2)CCO1", "IC50 at 10 min (µM)": 35.8}
{"smilesEntry": "CC(=O)N(C)CC[C@]1(C)CN(Cc2ccc(Nc3ncc(F)c(-c4cc(F)c5nc(C)n(C(C)C)c5c4)n3)nc2)CCO1", "IC50 at 10 min (µM)": 30.9}
{"smilesEntry": "CC[C@@]1(CCN(C)C)CN(Cc2ccc(Nc3ncc(F)c(-c4cc(F)c5nc(C)n(C(C)C)c5c4)n3)nc2)CCO1", "IC50 at 10 min (µM)": 24.8}

Looking up Cc1nc2c(F)cc(-c3nc(Nc4ccc(CN5CCN(C)C(C)(C)C5)cn4)ncc3F)cc2n1C(C)C , I found its IC50 at 10 min recorded as 90.6

Looking up Cc1nc2c(F)cc(-c3nc(Nc4ccc(CN5CCO[C@](C)(CC(=O)N(C)C)C5)cn4)ncc3F)cc2n1C(C)C , I found its IC50 at 10 min recorded as 20.1

Looking up Cc1nc2c(F)cc(-c3nc(Nc4ccc(CN5CCO[C@](C)(C[C@@H](C)N(C)C)C5)cn4)ncc3F)cc2n1C(C)C , I found its IC50 at 10 min recorded as 51.5

Looking up Cc1nc2c(F)cc(-c3nc(Nc4ccc(CN5CCO[C@](C)(CCN6CCC6)C5)cn4)ncc3F)cc2n1C(C)C , I found its IC50 at 10 min recorded as 51.7

----------
- assayDetails: in vitro
- studyConditions: human, Caco-2, pH 7.4
readoutKind: Papp A→B at 2 h, 2 μM (×10⁻⁶ cm/s)
State just the number; it will be interpreted in ×10⁻⁶ cm/s.

Looking up Cc1nc2c(F)cc(-c3nc(Nc4ccc(CN5CCO[C@](C)(CCN6CC6C)C5)cn4)ncc3F)cc2n1C(C)C (stereo partly shown) , I found its Papp A→B at 2 h, 2 μM recorded as 0.02

----------
- targetEntity: hERG potassium channels (Homo sapiens (Human))
- Sequence (Q12809 whole entry): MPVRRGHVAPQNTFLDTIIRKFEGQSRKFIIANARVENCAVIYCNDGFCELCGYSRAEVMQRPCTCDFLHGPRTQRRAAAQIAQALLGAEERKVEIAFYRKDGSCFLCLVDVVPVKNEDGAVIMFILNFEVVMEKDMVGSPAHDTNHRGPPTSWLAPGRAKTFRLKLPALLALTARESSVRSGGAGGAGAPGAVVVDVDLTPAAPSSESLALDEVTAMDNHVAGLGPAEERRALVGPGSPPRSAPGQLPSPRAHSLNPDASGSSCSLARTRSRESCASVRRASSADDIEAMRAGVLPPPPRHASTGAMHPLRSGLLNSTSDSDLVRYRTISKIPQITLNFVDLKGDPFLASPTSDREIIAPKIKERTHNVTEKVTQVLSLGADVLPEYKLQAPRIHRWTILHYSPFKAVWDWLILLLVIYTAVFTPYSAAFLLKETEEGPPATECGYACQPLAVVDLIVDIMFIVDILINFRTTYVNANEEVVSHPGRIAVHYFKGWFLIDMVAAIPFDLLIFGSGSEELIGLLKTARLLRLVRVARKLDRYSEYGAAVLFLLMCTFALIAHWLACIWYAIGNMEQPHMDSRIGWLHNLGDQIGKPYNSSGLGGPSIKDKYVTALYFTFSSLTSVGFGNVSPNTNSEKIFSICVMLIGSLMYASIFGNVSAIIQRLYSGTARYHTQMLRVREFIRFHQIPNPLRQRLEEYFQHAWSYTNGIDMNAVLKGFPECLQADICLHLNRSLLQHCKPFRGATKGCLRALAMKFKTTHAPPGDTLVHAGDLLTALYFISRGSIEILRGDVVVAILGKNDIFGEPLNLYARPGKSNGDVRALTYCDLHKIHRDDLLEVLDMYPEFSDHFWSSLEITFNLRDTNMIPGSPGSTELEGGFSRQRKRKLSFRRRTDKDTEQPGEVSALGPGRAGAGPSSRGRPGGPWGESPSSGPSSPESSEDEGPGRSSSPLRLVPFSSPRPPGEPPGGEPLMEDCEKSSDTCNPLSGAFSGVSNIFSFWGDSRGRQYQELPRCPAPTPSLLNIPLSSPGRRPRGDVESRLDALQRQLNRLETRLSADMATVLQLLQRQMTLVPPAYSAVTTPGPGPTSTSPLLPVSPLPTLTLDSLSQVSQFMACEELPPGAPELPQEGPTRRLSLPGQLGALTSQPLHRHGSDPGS
- assayDetails: hERG Inhibition Assay (QPatch automated patch clamp, CHO cells)
- studyConditions: percent of control current
A collection of compounds and their measured hERG
State just the number; it will be interpreted in %.

Looking up Cc1nc2c(F)cc(-c3nc(Nc4ccc(CN5CCO[C@@]6(CCN(S(C)(=O)=O)C6)C5)cn4)ncc3F)cc2n1C(C)C [Compound A31] , I found its hERG recorded as 21.67

Looking up Cc1nc2c(F)cc(-c3nc(Nc4ccc(CN5CCO[C@](C)(CCN6CC[C@H](F)C6)C5)cn4)ncc3F)cc2n1C(C)C [Compound A14] , I found its hERG recorded as 23.34

Looking up Cc1nc2c(F)cc(-c3nc(Nc4ccc(CN5CCNC(C)(C)C5)cn4)ncc3F)cc2n1C(C)C [Compound A44] , I found its hERG recorded as 10.84

Looking up Cc1nc2c(F)cc(-c3nc(Nc4ccc(CN5CCO[C@](C)(CCN6CC[C@@H](F)C6)C5)cn4)ncc3F)cc2n1C(C)C [Compound A15] , I found its hERG recorded as 17.46
